System: CAF#2 (primary prostate cancer-associated fibroblasts of iCAF-like type)
Assay: drug sensitivity score (DSS2, normalised partial AUC of dose-response, 72 h CellTiter-Glo viability) (DSS (dimensionless)); higher = more sensitive (stronger growth inhibition / cytotoxicity); extreme values may be limits of the assay
Mark true (1) for reported drug sensitivity score of 2 or greater; mark false (0) for anything smaller.

compound	qualitative label
O=C(c1ccc(OCCN2CCCCC2)cc1)c1c(-c2ccc(O)cc2)sc2cc(O)ccc12 [Raloxifene] (tested concentration range 1-10000 nM)	false (0)
CN(Cc1cnc2nc(N)nc(N)c2n1)c1ccc(C(=O)N[C@@H](CCC(=O)O)C(=O)O)cc1 [Methotrexate] (tested concentration range 0.5-5000 nM)	false (0)
O=C(Nc1cc(Cl)cc2c1[nH]c1cnccc12)c1cccnc1 [PS-1145] (tested concentration range 2.5-25000 nM)	true (1)
CC(C)(C)NC(=O)[C@H]1CC[C@H]2[C@@H]3CC[C@H]4NC(=O)C=C[C@]4(C)[C@H]3CC[C@]12C [Finasteride] (tested concentration range 1-10000 nM)	false (0)
NS(=O)(=O)NCCNc1nonc1/C(=N/O)Nc1ccc(F)c(Br)c1 [Epacadostat] (tested concentration range 1-10000 nM)	false (0)
CCN(CC)C(=S)SSC(=S)N(CC)CC [Disulfiram] (tested concentration range 5-50000 nM)	true (1)
Cc1[nH]c2ccccc2c1CCNCc1ccc(/C=C/C(=O)NO)cc1 [Panobinostat] (tested concentration range 0.1-1000 nM)	true (1)
C[C@@H]1C[C@H]2[C@@H]3CCC4=CC(=O)C=C[C@]4(C)[C@@]3(F)[C@@H](O)C[C@]2(C)[C@@]1(O)C(=O)CO [Dexamethasone] (tested concentration range 1-10000 nM)	false (0)
Cc1sc2c(c1C)C(c1ccc(Cl)cc1)=N[C@@H](CC(=O)Nc1ccc(O)cc1)c1nnc(C)n1-2 [Birabresib] (tested concentration range 1-10000 nM)	true (1)
O=C(Nc1nc2cccc(-c3ccc(CN4CCS(=O)(=O)CC4)cc3)n2n1)C1CC1 [Filgotinib] (tested concentration range 1-10000 nM)	true (1)

Cited source for all entries: the supplement of paper PMC12592484
